- system: TNFα (Homo sapiens, UniProt P01375)
- Sequence (P01375 77-233 limits assumed): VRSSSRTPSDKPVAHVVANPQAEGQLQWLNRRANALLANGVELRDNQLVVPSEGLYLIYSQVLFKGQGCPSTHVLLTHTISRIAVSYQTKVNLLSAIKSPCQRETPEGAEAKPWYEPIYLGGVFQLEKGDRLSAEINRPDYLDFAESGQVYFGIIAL
- experiment notes: TNF induced HEK-Blue assay (NF-kB-driven secreted alkaline phosphatase reporter)
- Assay type: cell-based
- condition description: TNFα 0.5 ng/mL, HEK-Blue-CD40L cells, 18 h; read-out: TNF induced HEK-Blue assay IC50 value
pIC50: −log10 of the molar value.
quantity kind: pIC50

Below: 3 compounds and their reported pIC50.
1. C[C@@H](Nc1c(Cl)cnc2ccc(-c3cnc(N4CCN(CC#N)CC4)nc3)cc12)c1ccccc1F [Example 233]: > 6.00
2. Cc1nc2ccc(-c3ccc(C(C)(C)O)cc3)cc2c(NC(C)c2ccccc2F)c1Cl (racemic) [Example 308]: > 6.00
3. CC(Nc1c(Cl)cnc2cc(F)c(-c3cnc(C(O)CO)nc3)cc12)c1ccccc1F (single isomer, unassigned) [Example 596]: > 6.00

Provide pIC50, system TNFα (Homo sapiens, UniProt P01375), entry CC(Nc1c(Cl)cnc2ccc(-c3ccc(C(C)(C)O)cc3)cc12)c1nc(C(N)=O)ccc1F (racemic) [Example 27]
> 6.00

Write down measured pIC50 (TNFα (Homo sapiens, UniProt P01375)) for this compound. CC(Nc1c(Cl)cnc2cc(F)c(-c3ccc(C(O)CN4CCOCC4)cc3)cc12)c1ccccc1F (stereo not drawn) [Example 272]
> 6.00

Consider the compound Cc1nc2cc(F)c(-c3cnc(C(C)(C)O)nc3)nc2c(N[C@@H](c2cc(C#N)ccc2F)C(F)F)c1Cl [Example 499] tested on TNFα (Homo sapiens, UniProt P01375); state its pIC50.
> 6.00

# return pIC50 of C[C@@H](Nc1c(Cl)cnc2ccc(-c3ccc(C4(N)CC4)cc3)cc12)c1ccccc1F [Example 102] (system: TNFα (Homo sapiens, UniProt P01375))
> 6.00

Give reported pIC50 for Cc1nc2cc(F)c(-c3cnc(C(C)(C)O)nc3)nc2c(N[C@H](C)c2cc(C(O)CO)ccc2F)c1Cl (stereo partly drawn) [Example 570] (TNFα (Homo sapiens, UniProt P01375))
5.00 to 6.00

Report pIC50 on TNFα (Homo sapiens, UniProt P01375) for this entry: Cc1nc2ccc(-c3cnc(C(C)(C)O)nc3)cc2c(N[C@H](C)c2cc(CCO)ccc2F)c1Cl [Example 323]
> 6.00

Give the observed pIC50 of CC(C)(O)c1ncc(-c2ccc3ncc(Cl)c(NC(CC(F)F)c4ccccc4F)c3c2)cn1 (racemic) [Example 168] for TNFα (Homo sapiens, UniProt P01375).
> 6.00

Answer with pIC50 of CC(Nc1c(Cl)cnc2ccc(-c3ccc(C(C)(C)O)cc3)cc12)c1ncco1 (racemic) [Example 179] measured for TNFα (Homo sapiens, UniProt P01375).
> 6.00

Find pIC50 for CC(Nc1c(Cl)cnc2ccc(-c3ccc(C(C)(C)O)cc3)cc12)c1ccn(C)n1 (racemic) [Example 200] on TNFα (Homo sapiens, UniProt P01375) and write it down.
5.00 to 6.00

Report pIC50 on TNFα (Homo sapiens, UniProt P01375) for this entry: Cc1nc2ccc(-c3cnc(C(C)(C)O)nc3)cc2c(N[C@H](C)c2cc(-c3cc[nH]n3)ccc2F)c1Cl [Example 336]
> 6.00

Send back TNFα (Homo sapiens, UniProt P01375) pIC50 of C[C@H](Nc1c(Cl)cnc2ccc(-c3cnc(C(C)(C)O)nc3)cc12)[C@H]1CCCN(C(=O)c2cccnc2)C1 [Example 566] only.
5.00 to 6.00

Write pIC50 of C[C@H](Nc1c(Cl)cnc2cc(F)c(-c3cnc(C(C)(C)O)nc3)nc12)c1ccccc1 [Example 208] ; system used: TNFα (Homo sapiens, UniProt P01375)
> 6.00

State measured pIC50 of the compound C[C@@H](Nc1c(Cl)cnc2ccc(-c3cnc(N4CCN(CC(=O)NS(C)(=O)=O)CC4)nc3)cc12)c1ccccc1F [Example 91] with TNFα (Homo sapiens, UniProt P01375).
> 6.00

Please report pIC50 with TNFα (Homo sapiens, UniProt P01375) for item CC(C)(O)c1ncc(-c2ccc3ncc(Cl)c(NCc4ccc(C(F)(F)F)cc4)c3c2)cn1 [Example 145] .
4.60 to 5.00

Report pIC50 under test system TNFα (Homo sapiens, UniProt P01375) for CC(=O)NC1CCC(O)(c2ncc(-c3ccc4ncc(Cl)c(N[C@H](C)c5ccccc5F)c4c3)cn2)CC1 (stereo partly drawn) [Example 131] .
5.00 to 6.00

###

- system: TNFα (Homo sapiens, UniProt P01375)
- experiment notes: TNF induced HEK-Blue assay (NF-kB-driven secreted alkaline phosphatase reporter)
- Assay type: cell-based
- condition description: TNFα 0.5 ng/mL, HEK-Blue-CD40L cells, 18 h; read-out: TNF induced HEK-Blue assay IC50 value
pIC50: −log10 of the molar value.
Reported pIC50 by item:

Examples with their reported pIC50 follow.
1) CC(CC1CCCC1)Nc1c(Cl)cnc2ccc(-c3cnc(C(C)(C)O)nc3)cc12 (racemic): > 6.00
2) CC(Nc1c(Cl)cnc2ccc(-c3ccc(C(C)(C)O)cc3)cc12)c1ncccn1 (racemic): > 6.00
3) C[C@@H](Nc1c(Cl)cnc2ccccc12)c1cc(-c2cnn(CC(C)(C)O)c2)ccc1F: 5.00 to 6.00

From here, focus on the item given below.
Supply measured pIC50 of C[C@@H](Nc1c(Cl)cnc2ccccc12)c1cc(-c2cnc(N(C)C)nc2)ccc1F in your reply.
5.00 to 6.00

###

- system: TNFα (Homo sapiens, UniProt P01375)
- experiment notes: TNF induced HEK-Blue assay (NF-kB-driven secreted alkaline phosphatase reporter)
- Assay type: cell-based
- condition description: TNFα 0.5 ng/mL, HEK-Blue-CD40L cells, 18 h; read-out: TNF induced HEK-Blue assay IC50 value
quantity kind: IC50

Check out these entries, answers already filled in.
1) CCCC(C)C(=O)c1c(Cl)c(C)nc2ccc(-c3cnc(C(C)(C)O)nc3)cc12 (racemic) [Example 356]: 10000 to 25000 nM
2) C[C@@H](Nc1c(Cl)cnc2cc(F)c(-c3cnc(C4CCN(CC(=O)O)CC4)nc3)cc12)c1ccccc1F [Example 594]: < 1000 nM
3) CC(Nc1c(Cl)cnc2ccc(-c3cnc(C(C)(C)O)nc3)cc12)c1ccc(F)cc1F (racemic) [Example 163]: 1000 to 10000 nM
4) C[C@@H](Nc1c(Cl)cnc2ccc(-c3cnc(C4(O)COC4)nc3)cc12)c1ccccc1F [Example 227]: < 1000 nM
5) COC(=O)N1CCC[C@H]([C@H](C)Nc2c(Cl)cnc3ccc(-c4cnc(C(C)(C)O)nc4)cc23)C1 [Example 354]: < 1000 nM

Using known records, supply IC50 for O=C(O)CN1CCN(c2ncc(-c3ccc4ncc(Cl)c(N[C@@H](c5ccccc5F)C(F)F)c4c3)cn2)CC1 [Example 92]
< 1000 nM

Return value of IC50 for input CC(Nc1c(Cl)cnc2cc(F)c(-c3cnc(N4CCN(C(=O)[C@@H](N)CC(=O)O)CC4)nc3)cc12)c1ccccc1F (single isomer, unassigned) [Example 605] , no commentary.
< 1000 nM

Complete the entry with IC50 for Cc1nc2ccc(-c3cnc(N4CCOCC4)nc3)cc2c(NC(C)c2ccccc2F)c1Cl (racemic) [Example 311]
< 1000 nM

Output measured IC50 for this item: CC(Nc1c(Cl)cnc2cc(F)c(-c3cnc(C(C)(C)O)cn3)cc12)c1ccccc1F (single isomer, unassigned) [Example 595]
< 1000 nM

Name the recorded IC50 of the item CCOC(=O)c1nc2ccc(-c3ccc(C#N)nc3)cc2c(Nc2cc(C)ccc2C)c1Cl [Example 5] in your answer.
1000 to 10000 nM

Consider the molecule C[C@@H](Nc1c(Cl)cnc2ccc(-c3cnc(C(C)(C)O)nc3)cc12)c1cc(-c2c[nH]nn2)ccc1F [Example 419] . State its measured IC50.
< 1000 nM

Kindly indicate its recorded IC50. Item: C[C@@H](Nc1c(Cl)cnc2ccc(-c3cnc(C(C)(C)O)nc3)cc12)c1cc(C2=CCNCC2)ccc1F [Example 338]
< 1000 nM

###

Reported pIC50 values are given for each entry in this list.
- system: TNFα (Homo sapiens, UniProt P01375)
- experiment notes: TNF induced HEK-Blue assay (NF-kB-driven secreted alkaline phosphatase reporter)
- Assay type: cell-based
- condition description: TNFα 0.5 ng/mL, HEK-Blue-CD40L cells, 18 h; read-out: TNF induced HEK-Blue assay IC50 value
pIC50: −log10 of the molar value.

1. Cc1nc2c(F)cc(-c3cnc(C(C)(C)O)nc3)cc2c(N[C@@H](c2ccccc2F)C(F)F)c1Cl [Example 299]: > 6.00
2. CC(Nc1c(Cl)cnc2ccc(-c3ccc(C(C)(C)O)cc3)cc12)c1ncccc1F (racemic) [Example 170]: > 6.00
3. Cc1nc2ccc(-c3cnc(C(C)(C)O)nc3)cc2c(N[C@@H](c2cc(C(N)=O)ccc2F)C(F)F)c1Cl [Example 390]: > 6.00
4. CNC(=O)c1nc2ccc(-c3ccc(C#N)nc3)cc2c(Nc2cc(C)ccc2C)c1Cl [Example 33]: 5.00 to 6.00
5. CC(C)(O)c1ccc(-c2cc3c(N[C@@H](c4ccccc4F)C(F)F)c(Cl)cnc3cc2F)cn1 [Example 270]: > 6.00

Then this molecule:
Determine from records and report pIC50 for C[C@H](Nc1c(Cl)cnc2ccc(-c3cnc(C(C)(C)O)nc3)cc12)[C@H]1CCCN(S(=O)(=O)c2cnn(C)c2)C1 [Example 564]
5.00 to 6.00
